% Fiboff (percent decrease in adsorbed protein during 10 minute PBS wash) overview
STUDY_SYSTEM: fibrinogen (Bos taurus, UniProt P02672+P02676+P12799)
Sequence (P02672 20-615): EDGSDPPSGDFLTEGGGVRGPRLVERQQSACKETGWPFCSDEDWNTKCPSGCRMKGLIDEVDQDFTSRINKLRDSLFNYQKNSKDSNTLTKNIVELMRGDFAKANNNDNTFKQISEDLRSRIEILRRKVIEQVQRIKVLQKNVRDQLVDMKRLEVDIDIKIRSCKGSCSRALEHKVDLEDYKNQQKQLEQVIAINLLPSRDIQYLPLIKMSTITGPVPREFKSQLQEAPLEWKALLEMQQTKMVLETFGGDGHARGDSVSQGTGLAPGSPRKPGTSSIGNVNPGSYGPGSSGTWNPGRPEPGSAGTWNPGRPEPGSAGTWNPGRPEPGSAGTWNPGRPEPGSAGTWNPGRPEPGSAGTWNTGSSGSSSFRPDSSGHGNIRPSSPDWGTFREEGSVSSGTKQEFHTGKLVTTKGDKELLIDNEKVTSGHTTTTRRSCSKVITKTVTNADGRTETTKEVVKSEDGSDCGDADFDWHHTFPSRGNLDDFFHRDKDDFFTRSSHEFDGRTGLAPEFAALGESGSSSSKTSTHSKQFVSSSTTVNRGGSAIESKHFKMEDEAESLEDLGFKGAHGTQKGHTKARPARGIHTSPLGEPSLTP
Sequence (P02676 whole entry): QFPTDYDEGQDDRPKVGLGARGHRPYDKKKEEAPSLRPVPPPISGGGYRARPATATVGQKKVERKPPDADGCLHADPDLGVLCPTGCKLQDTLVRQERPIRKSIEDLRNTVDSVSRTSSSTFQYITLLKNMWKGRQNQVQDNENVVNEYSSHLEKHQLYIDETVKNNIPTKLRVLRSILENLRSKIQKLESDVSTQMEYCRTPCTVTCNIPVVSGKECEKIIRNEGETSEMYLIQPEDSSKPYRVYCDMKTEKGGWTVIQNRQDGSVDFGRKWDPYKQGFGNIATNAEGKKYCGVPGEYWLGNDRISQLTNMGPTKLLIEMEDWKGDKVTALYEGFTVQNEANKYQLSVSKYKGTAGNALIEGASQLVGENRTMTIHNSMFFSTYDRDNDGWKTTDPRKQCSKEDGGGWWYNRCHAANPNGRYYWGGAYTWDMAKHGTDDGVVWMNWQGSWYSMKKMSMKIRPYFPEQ
Sequence (P12799 25-444): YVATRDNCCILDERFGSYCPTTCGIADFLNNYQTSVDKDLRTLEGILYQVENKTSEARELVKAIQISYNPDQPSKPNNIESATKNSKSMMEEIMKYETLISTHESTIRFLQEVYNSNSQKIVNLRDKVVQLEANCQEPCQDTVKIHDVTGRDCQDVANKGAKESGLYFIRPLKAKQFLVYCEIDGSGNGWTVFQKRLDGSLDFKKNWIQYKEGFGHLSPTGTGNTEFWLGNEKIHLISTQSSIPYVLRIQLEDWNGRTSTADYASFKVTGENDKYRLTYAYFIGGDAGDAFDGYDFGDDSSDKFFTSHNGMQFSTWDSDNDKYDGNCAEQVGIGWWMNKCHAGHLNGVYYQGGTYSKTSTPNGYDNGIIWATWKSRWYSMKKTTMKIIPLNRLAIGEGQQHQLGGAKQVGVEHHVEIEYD
ASSAY_OVERVIEW: SPR adsorption of fibrinogen to SAMs / grafted polymer films
Type: binding, bovine
MEASUREMENT_CONTEXT: mixed SAM —CONRR′/—CO2H
Field: numeric (%). Do not append units.

Worked cases, % Fiboff (percent decrease in adsorbed protein during 10 minute PBS wash) given:
>  <ITEM_SMILES>
CC(=O)NCCN

>  <OBSERVED_VALUE>
13

$$$$
>  <ITEM_SMILES>
CNCCN(C)C(C)=O

>  <OBSERVED_VALUE>
15

$$$$
>  <ITEM_SMILES>
Nc1ccc(O[C@@H]2O[C@H](CO)[C@H](O)[C@H](O)[C@H]2O)cc1

>  <OBSERVED_VALUE>
17

$$$$
>  <ITEM_SMILES>
CNCC(=O)N(C)C

>  <OBSERVED_VALUE>
28

$$$$
>  <ITEM_SMILES>
C1COCCOCCOCCOCCOCCN1

>  <OBSERVED_VALUE>
9.6

$$$$

Exam item: // % Fiboff (percent decrease in adsorbed protein during 10 minute PBS wash) lookup, key: `N#CCCNCCC#N`
Marked response: 20

Exam item: Any idea what % Fiboff (percent decrease in adsorbed protein during 10 minute PBS wash) was measured for `CNCCN(C)C(=O)N(C)C` ?
Marked response: 15

Exam item: Given the entry `N#CCNCC#N` , report its measured % Fiboff (percent decrease in adsorbed protein during 10 minute PBS wash).
Marked response: 7.9

###

STUDY_SYSTEM: lysozyme (Gallus gallus, UniProt P00698)
Sequence (P00698 19-147): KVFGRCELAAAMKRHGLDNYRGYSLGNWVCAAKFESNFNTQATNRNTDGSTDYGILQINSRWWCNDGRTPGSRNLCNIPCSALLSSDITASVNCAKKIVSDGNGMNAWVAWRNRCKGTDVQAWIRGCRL
ASSAY_OVERVIEW: SPR adsorption of lysozyme to SAMs / grafted polymer films
Type: binding
MEASUREMENT_CONTEXT: mixed SAM —CONRR′/—CO2H; 1 mg/mL lysozyme flowed 30 min
Where a SMILES comes first, the peptide text is derived from it. [ ]: non-standard residue; d: D form. Sar = CNCC(=O)O
Let's look at some compounds and their measured % MLlys 30 min.
// units = %; emit number, no label

Example entries and their recorded answers appear below.
>  <COMPOUND>
CNCCN(C)P(=O)(N(C)C)N(C)C

>  <STUDY_SYSTEM>
lysozyme (Gallus gallus, UniProt P00698)

>  <OBSERVED_VALUE>
0.3

$$$$
>  <COMPOUND>
CN(C)C(=O)CN

>  <STUDY_SYSTEM>
lysozyme (Gallus gallus, UniProt P00698)

>  <OBSERVED_VALUE>
15

$$$$
>  <COMPOUND>
CNCCN(C)C

>  <STUDY_SYSTEM>
lysozyme (Gallus gallus, UniProt P00698)

>  <OBSERVED_VALUE>
14

$$$$
>  <COMPOUND>
CNCC(=O)N(C)CC(=O)N(C)CC(=O)N(C)CC(=O)N(C)CC(=O)N(C)C [H(CH3)N(Sar)5N(CH3)2]

>  <STUDY_SYSTEM>
lysozyme (Gallus gallus, UniProt P00698)

>  <OBSERVED_VALUE>
1.0

$$$$

Exam item: Reported % MLlys 30 min, compound NCC1COCCOCCOCCOCCOCCO1 (stereo not drawn) : ____
Marked response: 9.6

Exam item: For `CC(=O)N1CCNCC1` , what is its reported % MLlys 30 min?
Marked response: 6.5

Exam item: What does the record list as % MLlys 30 min for `CNCCN(C)C(C)=O` ?
Marked response: 3.8

Exam item: May I ask what % MLlys 30 min has been recorded for `NC(CCCO)(CCCO)CCCO` ?
Marked response: 73

Exam item: Which % MLlys 30 min value is on record for `O=CN1CCNCC1` ?
Marked response: 12

Exam item: What % MLlys 30 min value was documented for this compound, `CC(=O)CCN` ?
Marked response: 71

Exam item: Requested field: % MLlys 30 min. Item: `C1COCCOCCOCCOCCOCCN1`
Marked response: 6.0

Exam item: I have this compound here, CNCC(=O)N(C)CC(=O)N(C)CC(=O)N(C)CC(=O)N(C)C [H(CH3)N(Sar)4N(CH3)2] (H-[Sar][Sar][Sar][Sar]-NMe2) , and I need its recorded % MLlys 30 min.
Marked response: 1.5

Exam item: Requested field: % MLlys 30 min. Item: `CNCCN(C)C(=O)OC`
Marked response: 43

Exam item: Given the compound `NC[C@H](O)[C@H](O)[C@H](O)[C@@H](O)CO` , what is its reported % MLlys 30 min?
Marked response: 20

Exam item: Requested field: % MLlys 30 min. Item: CNCC(=O)N(C)CC(=O)N(C)CC(=O)N(C)C [H(CH3)N(Sar)3N(CH3)2] (H-[Sar]-[Sar]-[Sar]-NMe2)
Marked response: 1.1

Exam item: Which % MLlys 30 min value belongs to `Nc1ccc(O[C@@H]2O[C@H](CO)[C@H](O)[C@H](O)[C@H]2O)cc1` ?
Marked response: 30

Exam item: I am curious: what % MLlys 30 min value has been reported for N[C@H]1C(O)O[C@H](CO)[C@@H](O)[C@@H]1O (stereo partly drawn) ?
Marked response: 25
